target: ICAM-1 on HeLa cells (UniProt P05362 28-532, limits assumed); assay: cell-based or functional assay
Sequence (P05362 28-532 limits assumed): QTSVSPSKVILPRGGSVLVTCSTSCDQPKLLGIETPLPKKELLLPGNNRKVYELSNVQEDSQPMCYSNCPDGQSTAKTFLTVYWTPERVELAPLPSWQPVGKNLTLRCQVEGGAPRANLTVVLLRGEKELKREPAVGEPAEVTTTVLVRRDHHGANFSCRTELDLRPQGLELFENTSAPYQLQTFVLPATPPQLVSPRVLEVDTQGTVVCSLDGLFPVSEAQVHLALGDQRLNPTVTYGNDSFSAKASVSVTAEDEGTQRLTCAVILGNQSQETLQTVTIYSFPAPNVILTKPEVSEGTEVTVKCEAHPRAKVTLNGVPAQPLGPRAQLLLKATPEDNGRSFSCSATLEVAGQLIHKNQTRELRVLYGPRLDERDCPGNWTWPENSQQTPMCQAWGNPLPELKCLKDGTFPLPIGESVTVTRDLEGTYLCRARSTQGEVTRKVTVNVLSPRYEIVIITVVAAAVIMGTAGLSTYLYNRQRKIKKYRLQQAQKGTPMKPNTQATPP
attribute measured: EC 50 (µM): 50% protection of HeLa cells against HRV15 infection at 1 MOI
A number alone suffices; assume µM.

Task item: May I ask what EC 50 (µM): 50% protection of HeLa cells against HRV15 infection at 1 MOI has been recorded for HscH (humanized 1A6 scFv HumH) (scFv, not shown: carboxy-terminal His tag of vector pBAD/pIII A) scFv: DIQMTQSPSSLSASVGDRVTITCRASQSISNNLHWYQQKPGKAPKLLIKHASQSISGVPSRFSGSGSGTDFTLTISSLQPEDFATYYCQQSNSWPYTFGQGTKVEIKRGGGGSGGGGSGGGGSGGGGSEVQLVESGGGLVQPGGSLRLSCAASGFNIKDTYIHWVRQAPGKGLEWVARIDPANDNTIYDPKVQGRFTISADDSKNTAYLQMNSLRAEDTAVYYCTTSGYWFAYWGQGTLVTVSS ?
Reply: 4.2
